Taken from patent US9175007B2.

# System: TNFα production in THP-1 cells
# testSummary: LPS induced TNFα production assay in THP-1 cells
# Assay type: cell-based
# experimentalSetup: Homo sapiens, 300 ng/mL LPS
pIC50: −log10 of the molar value.
Listing of recorded pIC50 by entry.

In the examples that follow, each entry is paired with its recorded pIC50.
>>> reported("Cn1cc(Nc2nc(O[C@H]3CC[C@H](N(C)C)CC3)c3c4c(sc3n2)CCC4)cn1")
"≥ 6.30"
>>> reported("CN(C)[C@H]1CC[C@H](Nc2nc(Nc3ccccc3)nc3sc4c(c23)CCC4)CC1")
"5.30 to 6.00"
>>> reported("c1nocc1Nc1nc(N[C@H]2CC[C@H](N3CCOCC3)CC2)c2c3c(sc2n1)CCC3")
"≥ 6.30"

Let's switch to this compound now.
# input Consider the compound "CN(C)[C@H]1CC[C@H](Oc2nc(Nc3ccccc3)nc3sc4c(c23)[C@@H](CC(N)=O)CC4)CC1" . State its measured pIC50.
# output ≥ 6.30

---

Listing of recorded pIC50 by entry.
# Test system: TNFα production in THP-1 cells
# testSummary: LPS induced TNFα production assay in THP-1 cells
# Type: cell-based
# experimentalSetup: Homo sapiens, 300 ng/mL LPS
pIC50: −log10 of the molar value.

In the examples that follow, each entry is paired with its recorded pIC50.
>>> reported("Cn1cc(Nc2nc(N[C@H]3CC[C@H](N4CCOCC4)CC3)c3c4c(sc3n2)CCC4)cn1 [Compound I-74]")
"≥ 6.30"
>>> reported("c1nscc1Nc1nc(N[C@H]2CC[C@H](N3CCOCC3)CC2)c2c3c(sc2n1)CCC3 [Compound I-76]")
"≥ 6.30"
>>> reported("Cn1cc(Nc2nc(N[C@H]3CC[C@H](N(C)C)CC3)c3c4c(sc3n2)CCC4)cn1 [Compound I-72]")
"≥ 6.30"
>>> reported("CN1CCN(c2ccc(Nc3nc(O[C@H]4CC[C@H](N(C)C)CC4)c4c5c(sc4n3)CC[C@@H]5CC(N)=O)cc2)CC1 [Compound I-23]")
"5.30 to 6.00"

Let's switch to this compound now.
# input Consider the compound Cn1cc(Nc2nc(O[C@H]3CC[C@H](N4CCOCC4)CC3)c3c4c(sc3n2)CCC4)cn1 [Compound I-73] . State its measured pIC50.
# output 6.00 to 6.30

---

# Tested on: TNF-α production in whole blood
# testSummary: In vitro R848-induced TNF-α production in whole blood
# Format: cell-based
# experimentalSetup: Homo sapiens, R848 1 uM
measurementKind: IC50

# input Under TNF-α production in whole blood: report IC50 of Cn1cc(Nc2nc(O[C@H]3CC[C@H](N(C)C)CC3)c3c4c(sc3n2)CC[C@@H]4CC(N)=O)cn1 [Compound I-22] .
# output ≥ 1000 nM
